Biological target: T1, fHbp m002252 (Neisseria meningitidis; fHbp …, chimera)
T1 chain: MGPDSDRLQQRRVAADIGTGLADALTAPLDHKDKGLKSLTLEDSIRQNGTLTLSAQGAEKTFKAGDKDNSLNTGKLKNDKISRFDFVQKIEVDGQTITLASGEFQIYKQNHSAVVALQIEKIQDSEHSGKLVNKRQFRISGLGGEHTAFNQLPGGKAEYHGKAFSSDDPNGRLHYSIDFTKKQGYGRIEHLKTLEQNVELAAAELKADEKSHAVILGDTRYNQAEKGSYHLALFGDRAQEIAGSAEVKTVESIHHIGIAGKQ
Assay: BLI
Conditions: both partners purified
Readout Type: Kd (nM)
Give the quantity in nM, number only.

Assign Kd to the following record: chimeric antibody h12C1 (antibody, V domains shown, also called humanized 12C1; source: Expi293, purified (MabSelect SuRe, SEC); copies: 2 + 2) VH: QVQLQESGPELVKPGASVKISCKASGYSFSDYNMSWVKQSNGKSLEWIGIIDPKYGTINYNQKFKGKATLTVDQASSTAYMQLNSLTSEDSAVYYCVRDYYGSSYFDYWGQGTTLTVSS VL: DIVLTQSPSSIYASLGERVTLTCKASQDIHNYLNWFQQKPGKSPKTLIYRANRLVDGVPSRFSGGGSGQDYSLTISSLEFEDIGIYYCLQYDEFPPTFGGGTRLEIK
0.269

Assign Kd to the following record: mAb 4B3 (human) (antibody, V domains shown, also called 4B3-2; source: Expi293, purified (MabSelect SuRe, SEC); copies: 2 + 2) VH: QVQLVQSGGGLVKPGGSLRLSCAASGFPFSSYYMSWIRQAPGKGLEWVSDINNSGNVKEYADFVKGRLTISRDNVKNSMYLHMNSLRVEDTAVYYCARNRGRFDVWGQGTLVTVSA VL: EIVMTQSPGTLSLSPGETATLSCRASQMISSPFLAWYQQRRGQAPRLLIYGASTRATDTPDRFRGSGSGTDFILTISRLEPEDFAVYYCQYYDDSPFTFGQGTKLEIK
1.27

Assign Kd to the following record: chimeric antibody hJAR5 (antibody, V domains shown, also called hJAR5-2; humanized JAR5; source: Expi293, purified (MabSelect SuRe, SEC); copies: 2 + 2) VH: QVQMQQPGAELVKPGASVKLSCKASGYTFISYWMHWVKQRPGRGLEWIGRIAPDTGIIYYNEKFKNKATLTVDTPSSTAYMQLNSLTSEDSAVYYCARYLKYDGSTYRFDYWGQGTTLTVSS VL: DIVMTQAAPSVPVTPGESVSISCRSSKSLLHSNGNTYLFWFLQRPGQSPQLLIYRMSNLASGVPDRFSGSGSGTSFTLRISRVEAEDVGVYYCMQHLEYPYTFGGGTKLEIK
5.07

Assign Kd to the following record: mAb 1E6 (human) (antibody, V domains shown, source: Expi293, purified (MabSelect SuRe, SEC); copies: 2 + 2) VH: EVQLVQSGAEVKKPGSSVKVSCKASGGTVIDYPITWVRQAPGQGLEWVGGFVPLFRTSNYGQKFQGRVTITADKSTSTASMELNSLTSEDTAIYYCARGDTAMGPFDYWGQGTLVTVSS VL: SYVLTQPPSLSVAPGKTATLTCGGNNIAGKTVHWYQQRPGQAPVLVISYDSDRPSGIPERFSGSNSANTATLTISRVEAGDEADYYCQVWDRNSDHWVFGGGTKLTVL
0.133
